Experiment: Measuring of viscosity of curable compound (cone plate type rotatory viscometer)
Type: physicochemical
Conditions: cone rotor, 50 rpm
PROPERTY_MEASURED: Viscosity (25 degrees C., mPA · s)
Answers are plain numbers, in mPA · s.

Here are 5 molecules together with their reported answers.
- MOLECULE: "C=CC(=O)N(C)CC(=O)OCCCC"
  UNIT_ABBREV: "mPA · s"
  EXPERIMENTAL_RESULT: 11.9
- MOLECULE: "C=CC(=O)N(C)CCOC(C)=O"
  UNIT_ABBREV: "mPA · s"
  EXPERIMENTAL_RESULT: 8.4
- MOLECULE: "C=CC(=O)N(C)CC(=O)OCC"
  UNIT_ABBREV: "mPA · s"
  EXPERIMENTAL_RESULT: 11.4
- MOLECULE: "C=CC(=O)N(CCCCCC)CC(=O)OCCCC [Example 12a]"
  UNIT_ABBREV: "mPA · s"
  EXPERIMENTAL_RESULT: 23.7
- MOLECULE: "C=CC(=O)N(C)C(C)C(=O)OC(C)C (centres unmarked) [Example 15a]"
  UNIT_ABBREV: "mPA · s"
  EXPERIMENTAL_RESULT: 6.8

# per-item lookup of Viscosity (25 degrees C., mPA · s); items listed below
1. C=CC(=O)N(CC(=O)OCC)CC(=O)OCC [Comparative Example 3a, reference compound]
2. C=CC(=O)N(C)C(C)C(=O)OC (centres unmarked) [Example 13a]
3. C=CC(=O)N(C)CCOC(=O)C(C)C

69.2
8.9
9.5

# per-item lookup of Viscosity (25 degrees C., mPA · s); items listed below
1. C=CC(=O)N(CCOC(C)=O)C(C)(C)C
2. C=CC(=O)N(C)CC(=O)OC

16.4
12.3

Looking up C=CC(=O)N(C)CCOC [Comparative Example 2a, reference compound] , I see its Viscosity (25 degrees C., mPA · s) listed as 2.4
